# test.method.notes: Conductivity measurements of transport buffers
# Assay type: physicochemical
# conditions.used: conductivity
readout: Measurement 1 (mS/cm)
Numbers only, in mS/cm.

// known answers, use as guide
NC(CO)(CO)CO [50 mM TRIS, TRIS]    3.50
O=C([O-])C(=O)[O-].[Na+].[Na+] [5 mM NaOxalate]    1.02
[Cl-].[Na+] [10 mM NaCl, NaCl]    1.07

Turning now to a further compound:
Query :: Return reported Measurement 1. Input compound: [Cl-].[Cl-].[Mg+2] [10 mM MgCl2, MgCl2]
Result :: 1.95

###

# System: DNA
# test.method.notes: DNA transport (accumulation) on the APEX chip
# conditions.used: in words, same field conditions
readout: transport

Here is how some molecules turned out for transport.
N[C@@H](CS)C(=O)O    excellent transport
NCCS(=O)(=O)O    excellent transport
O=P(O)(O)O [NaPO4, Sodium Phosphate]    fair transport
NCCC(=O)O    excellent transport

From here, focus on the item given below.
Query :: Look up transport of "NCCCC[C@H](N)C(=O)O" and report it.
Result :: fair transport
